Experiment: Chemical stability in simulated gastric fluid assessed as remaining compound level incubated for 8 hrs at 200 uM at 40 degC by HPLC method
Assay type: physicochemical
Settings: read-out: Stability
# strict inequality: remaining at 8 h, 200 µM < 70% yields fulfilled, everything else yields not fulfilled

Solved entries:
> print(dat)
                      smiles.representation       category
1  Cc1cc(-c2ccc(OCC(=O)Nc3ccc(-c4cnccn4)cn3)cc2)ccn1      fulfilled
2  Cc1cc(-c2ccc(CCC(=O)Nc3ccc(-c4cnccn4)cn3)cc2)ccn1  not fulfilled
3  Cc1cc(-c2ccc(SCC(=O)Nc3ccc(-c4cnccn4)cn3)cc2)ccn1  not fulfilled

[in] Hello, I'm reviewing records and need to know if remaining at 8 h, 200 µM of "Cc1cc(-c2ccc(NCC(=O)Nc3ccc(-c4cnccn4)cn3)cc2)ccn1" is below 70%. Could you check?
[out] not fulfilled

* * *

I'd appreciate it if you could supply half-life at 1 µM values for the items below.
Test: Half life in mouse liver microsomes at 1 uM in presence of NADPH by LC-MS/MS method
Format: ADME
Answers are plain numbers, in min.

Some entries whose results are on file:
> print(dat)
                                   compound      readout.label  value.units  recorded.number
1  Cc1cc(-c2ccc(OCC(=O)Nc3ccc(-c4cnccn4)cn3)cc2)ccn1  half-life at 1 µM          min              4.3
2  Cc1cc(-c2ccc(OC(C)C(=O)Nc3ccc(-c4cnccn4)cn3)cc2)ccn1 (stereo not given)  half-life at 1 µM          min               19
3  Cc1cc(-c2ccc(NCC(=O)Nc3ccc(-c4cnccn4)cn3)cc2)ccn1  half-life at 1 µM          min               14
4  Cc1cc(-c2ccc(CCC(=O)Nc3ccc(-c4cnccn4)cn3)cc2)ccn1  half-life at 1 µM          min              4.8

Could you now consider this next compound?
[in] # get_value(readout='half-life at 1 µM', item= "Cc1cc(-c2ccc(SCC(=O)Nc3ccc(-c4cnccn4)cn3)cc2)ccn1" )
[out] 3.4

* * *

Target: CYP3A4 (Homo sapiens)
Sequence (P08684 whole entry): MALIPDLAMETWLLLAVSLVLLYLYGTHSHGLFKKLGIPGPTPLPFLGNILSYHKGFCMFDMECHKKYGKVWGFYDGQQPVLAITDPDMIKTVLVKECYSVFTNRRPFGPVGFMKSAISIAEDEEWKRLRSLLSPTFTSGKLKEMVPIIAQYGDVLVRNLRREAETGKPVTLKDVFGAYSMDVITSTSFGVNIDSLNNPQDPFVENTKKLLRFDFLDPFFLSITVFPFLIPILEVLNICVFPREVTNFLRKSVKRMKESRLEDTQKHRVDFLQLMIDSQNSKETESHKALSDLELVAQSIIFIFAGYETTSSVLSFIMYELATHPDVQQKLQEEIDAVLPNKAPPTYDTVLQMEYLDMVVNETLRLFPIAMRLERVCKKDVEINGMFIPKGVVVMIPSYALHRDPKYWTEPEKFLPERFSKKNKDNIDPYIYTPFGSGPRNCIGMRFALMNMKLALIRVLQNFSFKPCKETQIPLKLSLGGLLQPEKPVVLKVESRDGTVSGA
Assay: Inhibition of CYP3A4 in human liver microsomes at 10 uM pre-incubated for 10 mins before midazolam substrate and NADPH addition by LC-MS/MS method
Format: ADME
Details: probe midazolam
readout.label: inhibition at 10 µM (%)
Numbers only, in %.

Some entries whose results are on file:
> print(dat)
                                   molecule  recorded.number
1  Cc1cc(-c2ccc(SCC(=O)Nc3ccc(-c4cnccn4)cn3)cc2)ccn1               60
2  Cc1cc(-c2ccc(NCC(=O)Nc3ccc(-c4cnccn4)cn3)cc2)ccn1               50
3  Cc1cc(-c2ccc(OCC(=O)Nc3ccc(-c4cnccn4)cn3)cc2)ccn1               47
4  Cc1cc(-c2ccc(OC(C)C(=O)Nc3ccc(-c4cnccn4)cn3)cc2)ccn1 (stereo not given)               67

Could you now consider this next molecule?
[in] # get_value(readout='inhibition at 10 µM', item= "Cc1cc(-c2ccc(CCC(=O)Nc3ccc(-c4cnccn4)cn3)cc2)ccn1" )
[out] 45

* * *

I'd appreciate it if you could supply remaining at 4 h, 200 µM values for the items below.
Experiment: Chemical stability in simulated gastric fluid assessed as remaining compound level incubated for 4 hrs at 200 uM at 40 degC by HPLC method
Type: physicochemical
Conditions: read-out: Stability
# answer = value followed by unit

Some entries whose results are on file:
> print(dat)
                                   molecule             readout.label  result
1  Cc1cc(-c2ccc(SCC(=O)Nc3ccc(-c4cnccn4)cn3)cc2)ccn1  remaining at 4 h, 200 µM     89%
2  Cc1cc(-c2ccc(OC(C)C(=O)Nc3ccc(-c4cnccn4)cn3)cc2)ccn1 (stereo not given)  remaining at 4 h, 200 µM     85%
3  Cc1cc(-c2ccc(CCC(=O)Nc3ccc(-c4cnccn4)cn3)cc2)ccn1  remaining at 4 h, 200 µM     97%
4  Cc1cc(-c2ccc(OCC(=O)Nc3ccc(-c4cnccn4)cn3)cc2)ccn1  remaining at 4 h, 200 µM     81%

Could you now consider this next molecule?
[in] # get_value(readout='remaining at 4 h, 200 µM', item= "Cc1cc(-c2ccc(NCC(=O)Nc3ccc(-c4cnccn4)cn3)cc2)ccn1" )
[out] 88%
